The reported numbers originate from patent US5922891A.

- TARGET_UNDER_TEST: 5-LO in bovine PMNL (Bos taurus)
- Construct: The purified PMNLs were suspended at a concentration of; endogenous in cells; host or cells: polymorphonuclear leukocytes isolated from bovine blood
- Sequence (F1MQ78 1-674): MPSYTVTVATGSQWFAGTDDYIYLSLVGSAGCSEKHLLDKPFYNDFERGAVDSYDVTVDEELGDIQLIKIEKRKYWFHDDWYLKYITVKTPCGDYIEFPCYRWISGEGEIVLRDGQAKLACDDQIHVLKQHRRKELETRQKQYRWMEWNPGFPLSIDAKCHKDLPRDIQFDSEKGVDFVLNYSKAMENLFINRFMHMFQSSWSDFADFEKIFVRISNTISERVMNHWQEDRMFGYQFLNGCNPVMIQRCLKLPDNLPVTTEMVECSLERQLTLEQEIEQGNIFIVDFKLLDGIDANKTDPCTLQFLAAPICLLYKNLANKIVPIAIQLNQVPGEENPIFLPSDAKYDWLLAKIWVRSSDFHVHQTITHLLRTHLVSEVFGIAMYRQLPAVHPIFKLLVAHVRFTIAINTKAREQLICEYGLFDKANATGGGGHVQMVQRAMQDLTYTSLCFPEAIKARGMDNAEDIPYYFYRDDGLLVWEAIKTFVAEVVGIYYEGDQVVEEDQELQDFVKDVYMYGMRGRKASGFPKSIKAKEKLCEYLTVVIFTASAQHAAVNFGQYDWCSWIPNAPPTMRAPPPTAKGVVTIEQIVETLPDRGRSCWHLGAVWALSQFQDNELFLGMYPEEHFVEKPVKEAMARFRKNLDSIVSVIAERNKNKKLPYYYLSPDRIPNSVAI
- ASSAY_NOTES: Inhibition of 5-lipoxygenase (5-HETE and LTB4 biosynthesis) in Ca-ionophore-stimulated bovine PMNL
- Assay type: cell-based
- CONDITION_PARAMETERS: comparison with compounds of the invention, read-out: IC50
pIC50: −log10 of the molar value.
READOUT_LABEL: pIC50

Any idea what its pIC50 is? The compound is CCCCOc1ccc(CC(=O)NO)cc1 [bufexamac, reference compound] < 4.52

###

- ASSAY_NOTES: Deoxyribose degradation as a measure of hydroxyl radical formation
- Assay type: biochemical
- CONDITION_PARAMETERS: 75 μM test compound; controls < 0.1
READOUT_LABEL: DD (deoxyribose degradation, malondialdehyde released)

Any idea what its DD (deoxyribose degradation, malondialdehyde released) is? The molecule is O=C(CCCc1ccc2c(c1O)C(=O)c1c(O)cccc1C2)NO [IIIC] 1.46 ± 0.02 μmol of MDA/mmol

Here is the next molecule: CC(C)C(C(=O)O)c1ccc2c(c1O)C(=O)c1c(O)cccc1C2 (centres unmarked) [VIIIA] 3.58 ± 0.30 μmol of MDA/mmol

Here is the next molecule: COC(=O)CCCCc1ccc2c(c1O)C(=O)c1c(O)cccc1C2 [IVB] 0.62 ± 0.03 μmol of MDA/mmol

Here is the next molecule: CN(O)C(=O)c1ccc(Cc2ccc3c(c2O)C(=O)c2c(O)cccc2C3)cc1 [XID] 0.97 ± 0.03 μmol of MDA/mmol

Here is the next molecule: O=C(O)CCc1ccc2c(c1O)C(=O)c1c(O)cccc1C2 [IIA, reference compound] 2.67 ± 0.23 μmol of MDA/mmol

###

- TARGET_UNDER_TEST: 5-LO in bovine PMNL (Bos taurus)
- Construct: The purified PMNLs were suspended at a concentration of; endogenous in cells; host or cells: polymorphonuclear leukocytes isolated from bovine blood
- ASSAY_NOTES: Inhibition of 5-lipoxygenase (5-HETE and LTB4 biosynthesis) in Ca-ionophore-stimulated bovine PMNL
- Type: cell-based
- CONDITION_PARAMETERS: N = 3 or more
Please respond with reported pIC50 for every item in the list.
Lab note: report pIC50 as minus log10 of the concentration in molar units, number only.

Any idea what its pIC50 is? The compound is CC(C(=O)N(C)O)c1ccc2c(c1O)C(=O)c1c(O)cccc1C2 (stereo not shown) 5.40

Here is the next compound: `O=C(O)CCCCCc1ccc2c(c1O)C(=O)c1c(O)cccc1C2` 4.72

Here is the next compound: COc1c(OC)c(OC(C)=O)c2cc(Cl)ccc2c1OC(C)=O [Ionapalene, reference compound] 6.30

###

- ASSAY_NOTES: Deoxyribose degradation as a measure of hydroxyl radical formation
- Assay type: biochemical
- CONDITION_PARAMETERS: 75 μM test compound; controls < 0.1
Please respond with reported DD (deoxyribose degradation, malondialdehyde released) for every item in the list.

Any idea what its DD (deoxyribose degradation, malondialdehyde released) is? The compound is `COC(=O)c1ccc(C(=O)c2ccc3c(c2O)C(=O)c2c(O)cccc2C3)cc1` 2.07 ± 0.12 μmol of MDA/mmol

Here is the next compound: CC(C(=O)N(C)O)c1ccc2c(c1O)C(=O)c1c(O)cccc1C2 (stereo not shown) 1.57 ± 0.16 μmol of MDA/mmol

Here is the next compound: `CN(O)C(=O)CCc1ccc2c(c1O)C(=O)c1c(O)cccc1C2` 0.92 ± 0.03 μmol of MDA/mmol

Here is the next compound: O=C1c2c(O)cccc2Cc2ccc(C(Cc3ccccc3)C(=O)O)c(O)c21 (stereo not shown) 3.25 ± 0.45 μmol of MDA/mmol

Here is the next compound: `O=C(Cc1ccc2c(c1O)C(=O)c1c(O)cccc1C2)NO` 1.89 ± 0.14 μmol of MDA/mmol

Here is the next compound: CC(C)C(C(=O)NO)c1ccc2c(c1O)C(=O)c1c(O)cccc1C2 (stereo not shown) 1.66 ± 0.08 μmol of MDA/mmol

Here is the next compound: COC(=O)C(c1ccc2c(c1O)C(=O)c1c(O)cccc1C2)C(C)C (stereo not shown) 0.54 ± 0.01 μmol of MDA/mmol

Here is the next compound: `O=C1c2c(O)cccc2Cc2cccc(O)c21` 2.89 ± 0.14 μmol of MDA/mmol

Here is the next compound: `CN(O)C(=O)Cc1ccc2c(c1O)C(=O)c1c(O)cccc1C2` 1.67 ± 0.08 μmol of MDA/mmol

Here is the next compound: `O=C(O)CCCCCc1ccc2c(c1O)C(=O)c1c(O)cccc1C2` 2.29 ± 0.03 μmol of MDA/mmol

###

- ASSAY_NOTES: Deoxyribose degradation as a measure of hydroxyl radical formation
- Assay type: biochemical
- CONDITION_PARAMETERS: 75 μM test compound; controls < 0.1
Please respond with reported DD (deoxyribose degradation, malondialdehyde released) for every item in the list.

Any idea what its DD (deoxyribose degradation, malondialdehyde released) is? The compound is O=C(O)Cc1ccc2c(c1O)C(=O)c1c(O)cccc1C2 [IA, reference compound] 3.74 ± 0.23 μmol of MDA/mmol

Here is the next compound: `CN(O)C(=O)CCCc1ccc2c(c1O)C(=O)c1c(O)cccc1C2` 1.50 ± 0.02 μmol of MDA/mmol

Here is the next compound: `O=C(O)c1ccc(C(=O)c2ccc3c(c2O)C(=O)c2c(O)cccc2C3)cc1` 1.80 ± 0.14 μmol of MDA/mmol

Here is the next compound: COC(=O)C(CCc1ccccc1)c1ccc2c(c1O)C(=O)c1c(O)cccc1C2 (stereo not drawn) 0.28 ± 0.03 μmol of MDA/mmol

Here is the next compound: `COC(=O)CCCCCc1ccc2c(c1O)C(=O)c1c(O)cccc1C2` 0.13 ± 0.02 μmol of MDA/mmol

Here is the next compound: `CN(O)C(=O)CCCCc1ccc2c(c1O)C(=O)c1c(O)cccc1C2` 1.36 ± 0.05 μmol of MDA/mmol

Here is the next compound: COC(=O)C(Cc1ccccc1)c1ccc2c(c1O)C(=O)c1c(O)cccc1C2 (stereo not drawn) 0.01 ± 0.00 μmol of MDA/mmol

Here is the next compound: `O=C(CCCCc1ccc2c(c1O)C(=O)c1c(O)cccc1C2)NO` 1.38 ± 0.09 μmol of MDA/mmol

Here is the next compound: CC(C)C(C(=O)N(C)O)c1ccc2c(c1O)C(=O)c1c(O)cccc1C2 (stereo not drawn) 0.86 ± 0.01 μmol of MDA/mmol
